experimental protocol: NCI Yeast Anticancer Drug Screen. Data for the mec2-1 strain (AID 157)
condition set: S. cerevisiae mec2-1 strain, at 50.0 µM, hits give high values
Compounds without any hit were thinned out: in the full panel of roughly 79,000, 15% have a hit.
measurement kind: growth inhibition (%)
Answer with a number only, understood to be in %.

INPUT: What value of measured growth inhibition is listed for CCOC(=O)C1C(C)C2(C#N)C(=N)OC1(C)C2(C#N)C#N (stereo unspecified) ?
OUTPUT: 19.1

INPUT: What value of measured growth inhibition is listed for O=P(O)(CP(=O)(c1ccccc1)c1ccccc1)c1ccccc1 ?
OUTPUT: 7.25

INPUT: What value of measured growth inhibition is listed for CCOc1ccc(NC(=O)/C(CC(=O)c2sc(Nc3ccc(C)cc3)nc2C)=N\NC(N)=S)cc1 ?
OUTPUT: 3.15

INPUT: What value of measured growth inhibition is listed for CC1=CC(=O)c2cc(C)ccc2C1=O ?
OUTPUT: -15

INPUT: What value of measured growth inhibition is listed for CC(c1ccccc1)C1OCCO1 (stereo unspecified) ?
OUTPUT: -27.4

INPUT: What value of measured growth inhibition is listed for CCOC(=O)C12CCCC1(O)N(NC(=O)c1ccccc1)C(C)=C2C(=O)OC (stereo unspecified) ?
OUTPUT: 21.6
